src = PubChem BioAssay (NCATS)

- EXPERIMENTAL_PROTOCOL: Cell Viability - LYMP2-008 (AID 980);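 note: cells exposed to compound for 24 h at 37 °C; nearly all actives have a fitted effect of over 60% in size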
- ASSAY_CONDITIONS: LYMP2-008 lymphoblastoid cell viability, qHTS; series mostly up to 92.2 µM
Records with an inconclusive call do not appear. The source made the active and inactive calls. Calls come from the whole dose curve; as a rule, active = well fitted cell-killing curve with a large enough effect; inconclusive = small, poorly fitted or top-dose-only effect; inactive = flat fitted curve, though single readings scatter.
VALUE_KIND: outcome

{"columns": ["MOLECULE", "outcome"],
 "data": [
  ["c1ccc2c(c1)-c1cccc3cccc-2c13", "inactive"],
  ["O=Cc1ccccc1", "inactive"],
  ["COC1=CC(=O)OC(CCc2ccc3c(c2)OCO3)C1 (stereo unspecified)", "inactive"],
  ["Cc1ccccc1O", "inactive"]
]}

For the molecule shown here, CC(=O)/C=C/c1ccccc1 , give the reported outcome.
inactive

Need outcome of CCOC(=O)c1ccccc1N , thanks.
inactive

Could you share which outcome value was measured for Oc1ccccc1Cl ?
inactive

If you can, please state the reported outcome value of CCOc1cc(C=O)ccc1O .
inactive

Any idea what its outcome is? The molecule is c1ccc(Nc2ccc3ccccc3c2)cc1
inactive

Tell me the measured outcome of Oc1c(Cl)c(Cl)c(Cl)c(Cl)c1Cl , please.
inactive

Sample CC(C)COC(=O)c1ccccc1C(=O)OCC(C)C — what was its outcome?
inactive

###

- EXPERIMENTAL_PROTOCOL: qHTS for Inhibitors of the Functional Ribonucleoprotein Complex (vRNP) of Lassa (LASV) Arenavirus: LASV Primary Screen - GLuc reporter signal (AID 1347082); note: nearly all actives have a fitted effect of over 60% in size
- ASSAY_CONDITIONS: LASV minigenome vRNP, Gaussia luciferase reporter; series mostly up to 57.5 µM
Results filed as inconclusive are left out. Active and inactive are the calls of the source. Calls follow the shape of the full dose curve; tested in HEK293 reporter line.
Select the matching outcome among active, inactive

{"columns": ["COMPOUND", "LABEL"],
 "data": [
  ["C[C@]12CC[C@H](O)CC1=CCC1C2CC[C@]2(C)C(n3cnc4ccccc43)=CCC12 (stereo not given in full)", "inactive"],
  ["Cc1ccc(S(=O)(=O)N[C@@H](Cc2ccccc2)C(=O)CCl)cc1", "inactive"],
  ["COc1ccc(-c2cc3c(C)nc(N)nc3n(C3CCC(OCCO)CC3)c2=O)cn1 (stereo not given)", "active"],
  ["COc1ccc2c(c1)C(=O)CC(c1ccc(OC)c(OC)c1)O2 (stereo not given)", "inactive"],
  ["CC(=O)C1CCC2C3CCC4=CC(=O)C=CC4(C)C3C(=O)CC12C (stereo not given)", "inactive"]
]}

Tell me the assay call for COc1ccc2c3c([nH]c2c1)C(C)NCC3 (stereo not given) please.
inactive

# fetch the recorded call for CNCCNS(=O)(=O)c1cccc2cnccc12 here
inactive

Test call, this compound: COc1ccccc1NC(C)=O
inactive

Dear all, I need the recorded test outcome for CCCCC(CC)CO (stereo not given) , thank you.
inactive

So what was the verdict on C[C@]12CC[C@@H]3c4ccc(O)cc4CC[C@H]3[C@@H]1CC[C@@H]2O in this test?
inactive

Hi, sorry to bother you, what did the test record for c1ccc(-c2ccccn2)nc1 ?
inactive

Please indicate how the test categorized O=c1ccn([C@@H]2O[C@H](COP(=O)(O)O)[C@@H](O)[C@H]2O)c(=O)[nH]1 .
inactive

# outcome recorded in this test, key = NCCCCN
inactive

###

- TARGET_ENTITY: Luciferin 4-monooxygenase (Photinus pyralis) (UniProt P08659)
- EXPERIMENTAL_PROTOCOL: Primary firefly luciferase (FLuc) qHTS assay for identification of artifact compounds. (AID 1845220); note: nearly all actives have a fitted effect of over 60% in size
- ASSAY_CONDITIONS: purified firefly luciferase, luminescence, 5 min; at 54.1 µM (top of the series) unless noted; series mostly up to 54.1 µM
- Description: PI: Alexander Tropsha Ph.D. UNC Eshelman School of Pharmacy University of North Carolina, Chapel Hill, North Carolina Hits from high-throughput screening (HTS) of chemical libraries are often false positives due to their interference with the assay detection technology. […] Using these curated datasets, we developed and validated several Quantitative Structure-Interference Relationship (QSIR) models to predict nuisance behavior. […] 6; Detection; Luminescence, ViewLux microplate reader. […]
Active and inactive are the calls of the source. Calls come from the whole dose curve; as a rule, active = well fitted inhibition curve with a large enough effect; inconclusive = small, poorly fitted or top-dose-only effect; inactive = flat fitted curve, though single readings scatter.
VALUE_KIND: outcome

Please review the entries below; each comes with its answer.
{"columns": ["COMPOUND", "OBSERVED_VALUE"],
 "data": [
  ["CC(=O)O[C@H]1CC[C@H]2[C@@H]3CC[C@H]4CC(=O)C=C(C)[C@]4(C)[C@H]3CC[C@]12C", "inactive"],
  ["NC(=O)c1ncn2c1CN=C(c1ccccc1Br)c1cc(F)ccc1-2", "inactive"],
  ["CS[C@]1(CO)C(=O)N2[C@H]3C(=CC=C[C@@H]3O)C[C@@]2(SC)C(=O)N1C", "inactive"],
  ["C=C[C@H]1CN2CCC1C[C@H]2[C@H](O)c1ccnc2ccccc12 (stereo partly specified)", "inactive"],
  ["Oc1ccc2c(c1)C13CCCC[C@H]1[C@@H](C2)N(CC1CCC1)CC3", "inactive"],
  ["C[C@@H](CN1CCC2(CC1)C(=O)NCN2c1cccc(F)c1)NC(=O)c1ccc(Br)cc1", "inactive"]
]}

Given the entry C=C1[C@@H](C)C2[C@H](Cc3ccccc3)NC(=O)[C@@]23C(/C=C/C[C@H](C)C[C@@](C)(O)/C=C/[C@@H]3OC(C)=O)[C@@H]1O (stereo partly specified) , what outcome was observed with Luciferin 4-monooxygenase (Photinus pyralis) (UniProt P08659)?
inactive

Under Luciferin 4-monooxygenase (Photinus pyralis) (UniProt P08659): outcome value of CC(=O)OC[C@]12[C@H](OC(C)=O)C(=O)[C@@H]3[C@@H](O)[C@@]14O[C@@]3(C)COC(=O)c1cccnc1[C@@H](C)[C@H](C)C(=O)O[C@@H]([C@H](OC(C)=O)[C@@H]2OC(C)=O)[C@]4(C)O ?
inactive

Give outcome (Luciferin 4-monooxygenase (Photinus pyralis) (UniProt P08659)) of the following compound: Fc1cc(F)c2c(c1)C1C=CCC1C(c1cccnc1)N2 (stereo unspecified)
inactive

Return outcome measured with Luciferin 4-monooxygenase (Photinus pyralis) (UniProt P08659) given this compound: C#CCO[C@H]1CN2CCC1CC2
inactive

Query outcome on Luciferin 4-monooxygenase (Photinus pyralis) (UniProt P08659) for CC(=O)O[C@H]1C[C@@H](C)O[C@H]2O[C@@H]3CC4CC[C@@H]5C(CC[C@]6(C)[C@@H](C7=CC(=O)OC7)CC[C@]56O)[C@@]4(C=O)C[C@H]3O[C@]21O (stereo partly specified)
inactive

Return outcome measured with Luciferin 4-monooxygenase (Photinus pyralis) (UniProt P08659) given this compound: C=C(C)[C@@]12O[C@@H]1[C@@]1(C)C(=CC2=O)CC[C@@H](OC(C)=O)[C@@H]1C
inactive

Observed outcome on Luciferin 4-monooxygenase (Photinus pyralis) (UniProt P08659) for CC[C@H]1/C=C\C=C/C[C@@H](C)[C@H](O)[C@@](C)(O)C(=O)[C@@H](C)[C@H](O)[C@@H](C)C(=O)[C@@H](C)[C@H](O)[C@@H](C)/C=C\C(=O)O[C@@H]2[C@H](C)[C@H](CC1)O[C@]1(CC[C@H](C)[C@H](C[C@@H](C)O)O1)[C@H]2C , please.
inactive

Kindly state the measured outcome obtained for CN1C(=O)C(Cc2ccc3ccccc3c2)N=C(c2ccc(O)cc2)c2cc(Cl)ccc21 (stereo unspecified) with Luciferin 4-monooxygenase (Photinus pyralis) (UniProt P08659).
inactive

I'm curious: which outcome was measured for C/C=C1/CN2CC[C@]34C(=Nc5ccc(OC)cc53)C2C[C@@H]1C4(CO)C(=O)OC (stereo partly specified) tested on Luciferin 4-monooxygenase (Photinus pyralis) (UniProt P08659)?
inactive

# query: outcome | item CNC(=O)c1cc(C#N)cc(C)c1NC(=O)c1cc(Br)nn1-c1ncccc1Cl | system: Luciferin 4-monooxygenase (Photinus pyralis) (UniProt P08659)
inactive

###

- EXPERIMENTAL_PROTOCOL: qHTS for Inhibitors of the Functional Ribonucleoprotein Complex (vRNP) of Lassa (LASV) Arenavirus: Viability assay - alamar blue signal for LASV Primary Screen (AID 1347083); note: nearly all actives have a fitted effect of over 80% in size
- ASSAY_CONDITIONS: cell viability, alamar blue fluorescence (LASV minigenome counter-screen); series mostly up to 57.5 µM
Records with an inconclusive call do not appear. The source made the active and inactive calls. The call rests on the fitted dose curve; tested in HEK293 reporter line.
Field 'call' accepts active, inactive

Example results:
{"columns": ["MOLECULE", "LABEL"],
 "data": [
  ["Cn1c(=O)c2nncnc2n(C)c1=O", "inactive"],
  ["C=CC(C)(CCC=C(C)C)OC(=O)CC (stereo not given)", "inactive"],
  ["CCCCCCCCO[C@@H]1O[C@H](CO)[C@@H](O)[C@H](O)[C@H]1O", "inactive"]
]}

Identify the outcome logged in this assay for the molecule shown: C#C[C@]1(O)CC[C@@H]2[C@@H]3CCC4=CC(=O)CC[C@@H]4[C@H]3CC[C@@]21CC
inactive

Assay outcome for C[C@@H]1C(=O)CC2C(C)(C)CCC[C@]2(C)[C@@]1(O)CCc1ccoc1 (stereo not given in full) : what was it?
inactive

State the result this test recorded for CC1=C2C(=O)OC(c3ccoc3)C2(C)CCC1 (stereo not given) .
inactive

Field: outcome | Entry: CC1(C)C[C@H]2C3=CCC4[C@@]5(C)CC[C@H](O)C(C)(C)C5CC[C@@]4(C)[C@]3(C)[C@@H](O)[C@@H](O)[C@@]2(CO)[C@@H](O)[C@@H]1O (stereo not given in full)
inactive

How was CCOC(=O)C12CC1/C(=N/O)c1ccccc1O2 (stereo not given) classified in this test?
inactive

Per the records of this test, what outcome belongs to Nc1cccc(-c2cc3c(Oc4cccc(O)c4)ncnc3[nH]2)c1 ?
active

// outcome(item) with item = Cc1ccccc1C(C(=O)NC1CCCCC1)N(C(=O)CNc1ccc(C#N)cc1)c1cccc(F)c1 (stereo not given)
inactive

Outcome? CC1=CCC2C(C1)C2(C)C (stereo not given)
inactive

Assay result, entry CO[C@H]1C[C@H](O[C@H]2[C@H](C)O[C@@H](O[C@@H]3/C(C)=C/C[C@@H]4C[C@@H](C[C@]5(C=C[C@H](C)[C@@H](C6CCCCC6)O5)O4)OC(=O)[C@@H]4C=C(C)[C@@H](O)[C@H]5OC/C(=C\C=C\[C@@H]3C)[C@]54O)C[C@@H]2OC)O[C@@H](C)[C@@H]1O — outcome?
inactive

What outcome does the record of this test show for N#CC1(c2ccc(NC(=O)c3cccnc3NCc3ccncc3)cc2)CCCC1 ?
inactive

Record request — test call for O=C(O)[C@H]1NC[C@H]2C[C@H]21
inactive

Look up the recorded call for O=C(OCCN1CCOCC1)C1(c2ccccc2)CCCCC1 in this test.
inactive

Outcome logged for Cn1cc(-c2cnn3c(N)c(Br)c([C@H]4CCCNC4)nc23)cn1 in this assay:
active

Lab log entry: C=C1CC[C@H](O)C/C1=C/C=C1\CCC[C@]2(C)[C@@H]([C@H](C)CCC(O)C(C)(C)O)CC[C@@H]12 (stereo not given in full) — outcome as called in the assay?
inactive

Please share the test call associated with C1CCc2nnnn2CC1 .
inactive

Each molecule tested received a call. Report the one for O=C(O)CCCCCC(=O)NN=C1CCCC1 .
inactive

// outcome(item) with item = O=[N+]([O-])c1ccc(O[C@@H]2O[C@H](CO)[C@@H](O)[C@H](O)[C@H]2F)c([N+](=O)[O-])c1
inactive
